B1: SLC19A2 (parent)
chain: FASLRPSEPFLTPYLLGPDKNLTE

Variants of: B1
assay.info: protein stability index of a GFP-peptide fusion (GPS, HEK-293T) (PSI 1-6); higher = more stable;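 note: lentivirally expressed fusions sorted by FACS into six bins by GFP to DsRed ratio, PSI derived from sequencing read proportions per bin multiplied by bin number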
experimental.parameters: c terminus: a fixed tail appended
Measured protein stability index, listed per entry.
# answer = number (no unit)

Examples from the recorded data:
variant_label=L11K reading=2.03
variant_label=F10Y reading=2.04
variant_label=E24D reading=2.01
variant_label=N21I reading=2.02

Pending variant:
Please give the measured protein stability index for this variant: `G17T` 1.96
